Assay: clinical
Conditions: human, plasma, po, 200 mg
Parameter: Cmax

INSERT INTO assay_data (molecule, parameter, reported) VALUES
  ('CN(C)C[C@H]1CN(CCc2ccsc2)CC[C@]1(O)c1cccc(C(N)=O)c1 [Compound I]', 'Cmax', '220 ng/mL');

---

Assay: clinical
Conditions: human, plasma, po, 60 mg
Parameter: Tmax (h)

INSERT INTO measurements (compound, reported) VALUES
  ('CN(C)C[C@H]1CN(CCc2ccsc2)CC[C@]1(O)c1cccc(C(N)=O)c1 [Compound I]', 2.25);
